- Tested target: FLuc-C-HiBiT (Photinus pyralis, UniProt P08659)
- Construct: firefly luciferase with C-terminal HiBiT tag, E. coli expressed
- Sequence (P08659 whole entry, looked up): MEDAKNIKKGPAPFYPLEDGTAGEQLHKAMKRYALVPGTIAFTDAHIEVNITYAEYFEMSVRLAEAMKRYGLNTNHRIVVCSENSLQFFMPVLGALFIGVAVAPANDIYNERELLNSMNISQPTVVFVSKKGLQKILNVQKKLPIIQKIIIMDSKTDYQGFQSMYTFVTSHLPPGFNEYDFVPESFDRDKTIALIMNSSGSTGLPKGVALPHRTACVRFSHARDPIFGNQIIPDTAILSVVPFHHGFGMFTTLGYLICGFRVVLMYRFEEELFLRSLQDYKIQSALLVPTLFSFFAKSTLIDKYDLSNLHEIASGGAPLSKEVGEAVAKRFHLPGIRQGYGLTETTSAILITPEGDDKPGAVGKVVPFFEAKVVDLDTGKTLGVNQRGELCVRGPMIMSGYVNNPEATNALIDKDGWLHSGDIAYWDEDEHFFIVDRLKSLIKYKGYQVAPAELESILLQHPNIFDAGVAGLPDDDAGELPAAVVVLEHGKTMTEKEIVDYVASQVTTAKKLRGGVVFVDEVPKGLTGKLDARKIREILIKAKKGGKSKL
- Test protocol: biochemical
- Details: enzyme activity, 10 uM ATP; read-out: IC50 or SDR50 (mM) / FLuc E
Measurement name: IC50 (mM)
Numbers only, in mM.

Here is how some compounds turned out for IC50.
| Compound | Val |
| --- | --- |
| O=C(NCc1ccncc1)C1CCN(C(=O)c2ncn3c2COC(c2ccccc2)C3)CC1 (stereo not shown) | 0.00176 |
| COc1ccc(C(=O)NCCn2ccn3nc(-c4ccc(C)cc4C)cc3c2=O)cc1F | 0.00351 |

Task item: What value of IC50 on FLuc-C-HiBiT (Photinus pyralis, UniProt P08659) does CN(C)c1ccc(NC(=O)c2ccc3c(c2)N(C)C2CCCCN2C3=O)cc1 (stereo not shown) have?
Reply: 0.0111
